assay: Membrane permeability test (PAMPA); format: in vitro ADME; conditions: pH 5.0, 37° C., read-out: pH 5.0 Pe
readout.kind: Papp at 4 h (×10⁻⁶ cm/s)

[[record]]
compound = "CNC(=O)Cn1cc(-c2ccc3c(c2)[C@H](F)C[C@]32NC(=O)N(CC(=O)N(Cc3ccc(F)cc3)[C@@H](C)C(F)(F)F)C2=O)cn1 [Comparative Example 1, reference compound]"
units_of_measure = "×10⁻⁶ cm/s"
data_value = 21.3

[[record]]
compound = "CN1CC(N(Cc2ccc(F)cc2)C(=O)CN2C(=O)N[C@]3(C[C@@H](F)c4cc(-c5cnn(C6CCOCC6)c5)ccc43)C2=O)(C(F)(F)F)C1"
units_of_measure = "×10⁻⁶ cm/s"
data_value = 24.4

[[record]]
compound = "CN1CC(N(Cc2ccc(F)cn2)C(=O)CN2C(=O)N[C@]3(C[C@@H](F)c4cc(-c5cnn(CC6COC6)c5)ccc43)C2=O)(C(F)(F)F)C1"
units_of_measure = "×10⁻⁶ cm/s"
data_value = 1

[[record]]
compound = "O=C1N[C@]2(CCc3cc(-c4cnn(C5CN(C6COC6)C5)c4)ccc32)C(=O)N1CC(=O)N(Cc1ccc(F)cn1)C1(C(F)(F)F)COC1"
units_of_measure = "×10⁻⁶ cm/s"
data_value = 3.1

[[record]]
compound = "CN1CC(N(Cc2ccc(F)cn2)C(=O)CN2C(=O)N[C@]3(C[C@@H](F)c4cc(-c5cnn(C(C)(C)C#N)c5)ccc43)C2=O)(C(F)(F)F)C1"
units_of_measure = "×10⁻⁶ cm/s"
data_value = 10.2

[[record]]
compound = "CN1CC(N(Cc2ccc(F)cc2)C(=O)CN2C(=O)N[C@]3(C[C@@H](F)c4cc(-c5cn(C)nc5F)ccc43)C2=O)(C(F)(F)F)C1"
units_of_measure = "×10⁻⁶ cm/s"
data_value = 28.1


* * *

assay: Pharmacokinetic study in mice; type: in vivo; settings: female, BALB/c (BALB/cAnN CrlCrlj), mouse, plasma, intravenous, 1 mg/kg
Entries and their AUC
readout.kind: AUC (ng·h/mL)

[[record]]
smiles_code = "O=C1N[C@]2(C[C@@H](F)c3cc(-c4cnn(C5CCN(C6COC6)CC5)c4)ccc32)C(=O)N1CC(=O)N(Cc1ccc(F)cn1)C1(C(F)(F)F)COC1"
data_value = 1690

[[record]]
smiles_code = "O=C1N[C@]2(CCc3cc(-c4cnn(C5CN(C6COC6)C5)c4)ccc32)C(=O)N1CC(=O)N(Cc1ccc(F)cc1)C1(C(F)(F)F)COC1"
data_value = 575

[[record]]
smiles_code = "CN1CC(N(Cc2ccc(F)cc2)C(=O)CN2C(=O)N[C@]3(C[C@@H](F)c4cc(-c5cnn(C(C)(C)C#N)c5)ccc43)C2=O)(C(F)(F)F)C1"
data_value = 446

[[record]]
smiles_code = "CN1CC(N(Cc2ccc(F)cn2)C(=O)CN2C(=O)N[C@]3(C[C@@H](F)c4cc(-c5cnn(CC6COC6)c5)ccc43)C2=O)(C(F)(F)F)C1"
data_value = 672

[[record]]
smiles_code = "CN1CC(N(Cc2ccc(F)cc2)C(=O)CN2C(=O)N[C@]3(CCc4cc(-c5cnn(C)c5)ccc43)C2=O)(C(F)(F)F)C1"
data_value = 465

[[record]]
smiles_code = "O=C1N[C@]2(C[C@@H](F)c3cc(-c4cnn(C5CN(C6COC6)C5)c4)ccc32)C(=O)N1CC(=O)N(Cc1ccc(F)cn1)C1(C(F)(F)F)COC1"
data_value = 819

[[record]]
smiles_code = "O=C1N[C@]2(CCc3cc(-c4cnn(C5CN(C6COC6)C5)c4)ccc32)C(=O)N1CC(=O)N(Cc1ccc(F)cc1)C1(C(F)(F)F)CC(F)(F)C1"
data_value = 875


* * *

experiment: Pharmacokinetic study in mice; type: in vivo; settings: female, BALB/c (BALB/cAnN CrlCrlj), mouse, plasma, oral, 10 mg/kg
Entries and their Cmax
readout.kind: Cmax (µg/mL)

[[record]]
smiles_code = "O=C1N[C@]2(C[C@@H](F)c3cc(-c4cnn(C5CN(C6COC6)C5)c4)ccc32)C(=O)N1CC(=O)N(Cc1ccc(F)cn1)C1(C(F)(F)F)COC1"
data_value = 6.14

[[record]]
smiles_code = "CN1CC(N(Cc2ccc(F)cn2)C(=O)CN2C(=O)N[C@]3(C[C@@H](F)c4cc(-c5cnn(C6COC6)c5)ccc43)C2=O)(C(F)(F)F)C1"
data_value = 1.47

[[record]]
smiles_code = "CN1CC(N(Cc2ccc(F)cn2)C(=O)CN2C(=O)N[C@]3(C[C@@H](F)c4cc(-c5cnn(CC6COC6)c5)ccc43)C2=O)(C(F)(F)F)C1"
data_value = 1.63

[[record]]
smiles_code = "CN1CC(N(Cc2ccc(F)cc2)C(=O)CN2C(=O)N[C@]3(C[C@@H](F)c4cc(-c5cnn(C(C)(C)C#N)c5)ccc43)C2=O)(C(F)(F)F)C1"
data_value = 1.72

[[record]]
smiles_code = "CN1CC(N(Cc2ccc(F)cn2)C(=O)CN2C(=O)N[C@]3(C[C@@H](F)c4cc(-c5cnn(C)c5)ccc43)C2=O)(C(F)(F)F)C1"
data_value = 1.34

[[record]]
smiles_code = "O=C1N[C@]2(C[C@@H](F)c3cc(-c4cnn(C5CCN(C6COC6)CC5)c4)ccc32)C(=O)N1CC(=O)N(Cc1ccc(F)cn1)C1(C(F)(F)F)COC1"
data_value = 8.14


* * *

Entries and their Cmax
test: Pharmacokinetic study in mice; format: in vivo; details: female, BALB/c (BALB/cAnN CrlCrlj), mouse, plasma, oral, 10 mg/kg
readout.kind: Cmax (ng/mL)

[[record]]
smiles_code = "CN1CC(N(Cc2ccc(F)cc2)C(=O)CN2C(=O)N[C@]3(C[C@@H](F)c4cc(-c5cnn(C)c5)ccc43)C2=O)(C(F)(F)F)C1"
data_value = 3240

[[record]]
smiles_code = "O=C1N[C@]2(C[C@@H](F)c3cc(-c4cnn(C5CN(C6COC6)C5)c4)ccc32)C(=O)N1CC(=O)N(Cc1ccc(F)cc1)C1(C(F)(F)F)CC(F)(F)C1"
data_value = 8300

[[record]]
smiles_code = "CN1CC(N(Cc2ccc(F)cc2)C(=O)CN2C(=O)N[C@]3(CCc4cc(-c5cnn(C)c5)ccc43)C2=O)(C(F)(F)F)C1"
data_value = 1290

[[record]]
smiles_code = "O=C1N[C@]2(CCc3cc(-c4cnn(C5CN(C6COC6)C5)c4)ccc32)C(=O)N1CC(=O)N(Cc1ccc(F)cc1)C1(C(F)(F)F)COC1"
data_value = 3770


* * *

system: G-401 cells; experiment: Cell proliferation inhibition experiment using G-401 cells; format: cell-based; conditions: Homo sapiens, 72 h, cultured for 3 days, CellTiter-Glo
Entries and their IC50
readout.kind: IC50 (nM)

[[record]]
smiles_code = "CN1CC(N(Cc2ccc(F)cc2)C(=O)CN2C(=O)N[C@]3(CCc4cc(-c5cnn(C(C)(C)C#N)c5)ccc43)C2=O)(C(F)(F)F)C1"
data_value = 20

[[record]]
smiles_code = "CN1CC(N(Cc2ccc(C(F)(F)F)cc2)C(=O)CN2C(=O)N[C@]3(C[C@@H](F)c4cc(-c5cnn(C)c5)ccc43)C2=O)(C(F)(F)F)C1"
data_value = 72

[[record]]
smiles_code = "O=C1N[C@]2(CCc3cc(-c4cnn(C5CN(C6COC6)C5)c4)ccc32)C(=O)N1CC(=O)N(Cc1ccc(F)cc1)C1(C(F)(F)F)COC1"
data_value = 181

[[record]]
smiles_code = "O=C1N[C@]2(CCc3cc(-c4cnn(C5CN(C6COC6)C5)c4)ccc32)C(=O)N1CC(=O)N(Cc1ccc(F)cc1)C1(C(F)(F)F)CC(F)(F)C1"
data_value = 88

[[record]]
smiles_code = "O=C1N[C@]2(C[C@@H](F)c3cc(-c4cnn(C5CCN(C6COC6)CC5)c4)ccc32)C(=O)N1CC(=O)N(Cc1ccc(F)cn1)C1(C(F)(F)F)COC1"
data_value = 82

[[record]]
smiles_code = "O=C1N[C@]2(C[C@@H](F)c3cc(-c4cnn(C5CN(C6COC6)C5)c4)ccc32)C(=O)N1CC(=O)N(Cc1ccc(F)cc1)C1(C(F)(F)F)CC(F)(F)C1"
data_value = 43

[[record]]
smiles_code = "CCn1cc(-c2ccc3c(c2)[C@H](F)C[C@]32NC(=O)N(CC(=O)N(Cc3ccc(F)cc3)C3(C(F)(F)F)CN(C)C3)C2=O)cn1"
data_value = 2

[[record]]
smiles_code = "CN1CC(N(Cc2ccc(F)cc2)C(=O)CN2C(=O)N[C@]3(CCc4cc(-c5cnn(C)c5F)ccc43)C2=O)(C(F)(F)F)C1"
data_value = 310

[[record]]
smiles_code = "O=C1N[C@]2(CCc3cc(-c4cnn(C5CN(C6COC6)C5)c4)ccc32)C(=O)N1CC(=O)N(Cc1ccc(F)cn1)C1(C(F)(F)F)CC(F)(F)C1"
data_value = 247

[[record]]
smiles_code = "CN1CC(N(Cc2ccc(F)cc2)C(=O)CN2C(=O)N[C@]3(C[C@@H](F)c4cc(-c5cnn(C6CCOCC6)c5)ccc43)C2=O)(C(F)(F)F)C1"
data_value = 24

[[record]]
smiles_code = "O=C1N[C@]2(CCc3cc(-c4cnn(C5CN(C6COC6)C5)c4)ccc32)C(=O)N1CC(=O)N(Cc1ccc(F)cn1)C1(C(F)(F)F)COC1"
data_value = 391

[[record]]
smiles_code = "CN1CC(N(Cc2ccc(F)cn2)C(=O)CN2C(=O)N[C@]3(CCc4cc(-c5cnn(C)c5)ccc43)C2=O)(C(F)(F)F)C1"
data_value = 353

[[record]]
smiles_code = "CN(C)C1(Cn2cc(-c3ccc4c(c3)[C@H](F)C[C@]43NC(=O)N(CC(=O)N(Cc4ccc(F)cc4)C4(C(F)(F)F)COC4)C3=O)cn2)COC1"
data_value = 68

